# ASSAY_SYSTEM: HLA-A*02:03
# ASSAY_EXPLANATION: IEDB peptide-MHC binding, purified MHC/competitive/radioactivity; filed as Kd, often an IC50 or EC50 that approximates it; bounds were set here for any values at or beyond the usual limits of such assays
# EXPERIMENTAL_CONTEXT: source organism: Vaccinia virus WR
pKd: −log10 of the molar value.
MEASURED_PROPERTY: pKd

Which value of pKd has been reported for VIRHVDGKIL in the records?
≤ 4.48

Which value of pKd has been reported for CAVIPFDDI in the records?
≤ 5.00

Which value of pKd has been reported for TVLGLGLSLK in the records?
≤ 4.15
